- Test system: MCF7 breast
- Assay Name: NCI tumour cell line growth inhibition, 48 h
Where a SMILES comes first, the peptide text is derived from it. The star is where a group is joined. Cbz = O=C(OCc1ccccc1)*
// values below are reported TGI
Recorded Endpoint: TGI

Molecule	Assay Result
Cc1cc(C)c2c(-c3ccccc3)cc(=O)[nH]c2c1	> 100 µM
O=C1CC(Nc2ccccc2)c2c(Cl)sc(Cl)c21 (stereo not given)	5.21 µM
OC(c1ccccc1)c1c(-c2ccccc2)[nH]c(-c2ccccc2)c1C(O)c1ccccc1 (stereo not given)	19.1 µM
c1ccc(CCCN2C3CCC2CN(CCOC(c2ccccc2)c2ccccc2)C3)cc1	25.8 µM
CCCCCOC(=O)c1c(C)[nH]c(/C=C2\N=C(c3ccc[nH]3)C=C2OC)c1C	1.14 µM
COc1nc2ncc([C@@H](OC(C)=O)[C@@H](COC(C)=O)OC(C)=O)nc2c(=O)n1C	> 100 µM
COC(=O)C12C(=O)CC3CCC1C32C(=O)OC (stereo not given)	> 100 µM
CCOC(=O)CCC(NC(=O)C(CC(=O)OC)NC(=O)OCc1ccccc1)C(=O)NC(CC(=O)OC)C(=O)NC(CCC(=O)OCC)C(=O)NC(CC(=O)OC)C(=O)NC(CCC(=O)OCC)C(=O)NC(CC(=O)OCC)C(=O)OCC (stereo not given) (Cbz-D(OMe)E(OEt)D(OMe)E(OEt)D(OMe)E(OEt)D(OEt)-OEt; configuration not given here)	> 100 µM
CC(=O)Oc1ccc2c(c1)O/C(=C\c1ccc(N(C)C)cc1)C2=O	> 100 µM
C/C(=N/NC(=S)N1CCCCCC1)c1cccc(/C(C)=N\NC(=S)N2CCCCCC2)n1	3.46 µM
C/C(=C\CCC1=CC(=O)OC1)CCC1C2C(=O)CC(C)[C@@]3(C)CC[C@]1(C)[C@@]23C (stereo not given in full)	> 10 µM
CCOC(=O)c1sc2nc(=S)[nH]c(NC(N)=S)c2c1C	37.2 µM
COP(=O)(OC)[C@@](O)(c1ccccc1)[C@@H](O)[C@H](O)c1ccccc1	63.3 µM
CCOC(=O)c1nc(SC)sc1NC(=O)c1ccc(OC)cc1	> 100 µM
CCCCOc1ccc(/C=C/C2=[N+](CCO)CCO2)cc1	> 100 µM

###

- Tested on: ACHN renal
- Assay Name: NCI tumour cell line growth inhibition, 48 h
// values below are reported TGI
Recorded Endpoint: TGI

Compound	Recorded Endpoint	Assay Result
CC(C)CC(NC(=O)C(O)C(N)Cc1ccccc1)C(=O)O (stereo unspecified)	TGI	> 100 µM
COC(=O)C12C(=O)CC3CCC1C32C(=O)OC (stereo unspecified)	TGI	> 100 µM
C/C(=N/NC(=S)N1CCCCCC1)c1cccc(/C(C)=N\NC(=S)N2CCCCCC2)n1	TGI	2.87 µM
c1ccc(CCCN2C3CCC2CN(CCOC(c2ccccc2)c2ccccc2)C3)cc1	TGI	26.2 µM
O=C1CN=C(c2ccccc2)c2ccncc2N1	TGI	> 100 µM
CCOC(=O)c1nc(SC)sc1NC(=O)c1ccc(OC)cc1	TGI	> 100 µM
CCCSc1ccc2[nH]c(N3C(=O)/C(=C/c4ccc(O)c(OC)c4)N=C3c3ccccc3)cc2c1	TGI	> 100 µM
O=C1C2C3SC(c4cc5ccccc5cc43)C2C(=O)N1c1ccccc1 (stereo unspecified)	TGI	> 100 µM
CC(=O)N1N=C(c2ccccc2)NC(=O)C1c1cc(C)c(O)c(C)c1 (stereo unspecified)	TGI	44 µM
c1ccc2[nH]c(-c3ccc(Nc4nc(N5CCCC5)nc5[nH]ncc45)cc3)nc2c1	TGI	1.07 µM
CN1CCN(c2cc(F)c(NC3=C(Cl)C(=O)c4ncccc4C3=O)c(F)c2)CC1	TGI	2.9 µM
CN(C)N1C(=C(C#N)C#N)C(c2ccccc2)CC1C#N (stereo unspecified)	TGI	> 100 µM
COc1ccc2c(c1)c(-c1ccc(-c3cn(C)c4ccc(OC)cc34)s1)cn2C	TGI	> 100 µM
CC[O-].CC[O-].[O-]c1ccccc1C=NC12CC3CC(CC(C3)C1)C2.[O-]c1ccccc1C=NC12CC3CC(CC(C3)C1)C2.[Ti+4]	TGI	> 100 µM
CN(C)C(=C1C(Br)=C(Br)C(Br)=C1Br)N(C)C	TGI	> 100 µM
O=C(O)c1ccccc1NS(=O)(=O)c1ccc(Cl)cc1	TGI	> 100 µM
COC(=O)c1sc2nc(Nc3ccccc3)c(=Nc3ccccc3)sc2c1C	TGI	> 100 µM
COc1cc(-c2csc(NC(=O)Nc3ccc(Cl)cc3)n2)cc(OC)c1OC	TGI	7.35 µM
CCOC(=O)N1CCC2(CC1)C[C@](Sc1ccccc1)(C(C)=O)[C@H](C)O2	TGI	> 100 µM
Cc1ccc(S(=O)(=O)N(CC(O)COc2ccccc2)c2c(F)c(F)c(F)c(F)c2F)cc1 (stereo unspecified)	TGI	32 µM
Cc1cc2c3c(c1)S(=O)(=O)c1cc(Cl)ccc1N3CCC2	TGI	> 100 µM

###

- Test system: SF-295 CNS
- Assay Name: NCI tumour cell line growth inhibition, 48 h
Where a SMILES comes first, the peptide text is derived from it. [ ]: non-standard residue; d: D form. ξ: configuration not given here. Pentanoyl(2-O,4-OH,5-Cl) = O=C(O)C(O)CC(O)CCl; Ile(3ξ) = CCC(C)[C@H](N)C(=O)O; NMeV = CN[C@H](C(=O)O)C(C)C; NMeA = CN[C@@H](C)C(=O)O; βAla = NCCC(=O)O
// values below are reported TGI
Recorded Endpoint: TGI

Molecule	Target Entity	Assay Result
O=C(O)CSC1=NCCN1	SF-295 CNS	> 100 µM
COc1cc(O)c2c(=O)c3cccc(C)c3[nH]c2c1	SF-295 CNS	> 10 µM
Cc1cccc(C)c1NC(=S)N/C=C(\C#N)C(N)=O	SF-295 CNS	> 100 µM
O=C(Nc1ccc(Nc2ccc3c(c2)C(=O)c2ccccc2C3=O)c2c1C(=O)c1ccccc1C2=O)c1ccccc1	SF-295 CNS	> 100 µM
CC(C)NC1CCCCC2c3ccccc3C12O (centres undefined)	SF-295 CNS	> 100 µM
COc1ccc2c(c1)c(-c1ccc(-c3cn(C)c4ccc(OC)cc34)s1)cn2C	SF-295 CNS	> 100 µM
CCC(C)[C@@H]1NC(=O)[C@@H]2CCCN2C(=O)C(CC(O)CCl)OC(=O)CCNC(=O)[C@H](C)N(C)C(=O)[C@H](C(C)C)N(C)C1=O (some centres undefined) (cyclo([Ile(3ξ)][NMeV][NMeA][βAla][Pentanoyl(2-O,4-OH,5-Cl)]P))	SF-295 CNS	70.4 µM
CCOc1cc2c(cc1OC)c[n+](C)c1c3cc(OC)c(OC)cc3ccc21	SF-295 CNS	> 100 µM
COc1ccc(Nc2nc3ccccc3nc2-c2cccs2)cc1OC	SF-295 CNS	> 10 µM
Cc1cc(C)c2c(c1)CSCc1cc(C)cc(C)c1-2	SF-295 CNS	68.3 µM
COc1cccc(C2CC(C)(O)Oc3cc4c(cc32)OCO4)c1 (centres undefined)	SF-295 CNS	95.7 µM
CC[O-].CC[O-].[O-]c1ccccc1C=NC12CC3CC(CC(C3)C1)C2.[O-]c1ccccc1C=NC12CC3CC(CC(C3)C1)C2.[Ti+4]	SF-295 CNS	> 100 µM
Fc1ccc(F)c(C=NC23CC4CC(CC(C4)C2)C3)c1	SF-295 CNS	> 10 µM
Clc1ccc2c(NCCCCNc3nc(N4CCOCC4)nc4ccccc34)ccnc2c1	SF-295 CNS	3.73 µM
O=C1O/C(=C(\Br)c2ccc([N+](=O)[O-])cc2)c2ccccc21	SF-295 CNS	> 100 µM
C[C@]12CCC(=O)C=C1CC[C@@H]1[C@@H]2CC[C@]2(C)C(=O)/C(=C/c3ccc([N+](=O)[O-])cc3)C[C@@H]12	SF-295 CNS	> 100 µM
CCN(Cc1ccccc1)c1ccc(/C=C2\COc3ccccc3C2=O)cc1	SF-295 CNS	> 1000 µM
CCOc1ccc2c(c1)[n+]([O-])c(C(N)=O)c(N)[n+]2[O-]	SF-295 CNS	> 100 µM
CC(NC(=O)c1ccc(Cl)c(Cl)c1)c1ccc(-c2ccccc2)cc1 (centres undefined)	SF-295 CNS	> 100 µM
C[C@]12CC[C@H]3[C@@H](CC=C4C[C@@H](N5CCCC5)CC[C@@]43C)[C@@H]1C/C(=C\c1ccc([N+](=O)[O-])cc1)[C@@H]2O	SF-295 CNS	96.7 µM
N#Cc1cnc2ccc(NCc3cnc[nH]3)cc2c1Nc1ccc(F)c(Cl)c1	SF-295 CNS	> 100 µM
COc1ccc(C2c3cc4c(cc3OC(N3CCOCC3)C2C)OCO4)cc1OC (centres undefined)	SF-295 CNS	32.8 µM
CCOc1cc(/C=C/C(=O)CC(=O)/C=C/c2ccc(OC(=O)CNc3nc4ccc(OC)cc4s3)c(OCC)c2)ccc1OC(=O)CNc1nc2ccc(OC)cc2s1	SF-295 CNS	33.2 µM
COc1cc2ncnc(Nc3cccc(Br)c3)c2cc1OC	SF-295 CNS	14.3 µM
O=c1[nH]nc(-c2ccc3ccccc3c2)[nH]1	SF-295 CNS	> 100 µM
CN1CCN(c2ccc3nc(-c4[nH]ncc4Nc4ncnc5[nH]ccc45)[nH]c3c2)CC1	SF-295 CNS	3.18 µM
CCn1c(-c2nonc2N)nc2cnc(Oc3cccc(NC(=O)c4ccc(OCCN5CCOCC5)cc4)c3)cc21	SF-295 CNS	> 16.9 µM
O=[N+]([O-])c1ccc(Cl)c(C2CC(c3cccc4ccccc34)=Nc3ccccc3S2=O)c1 (centres undefined)	SF-295 CNS	61 µM
CN(C)C(=C1C(Br)=C(Br)C(Br)=C1Br)N(C)C	SF-295 CNS	> 100 µM
COC(=O)[C@H](Cc1ccccc1)NC(=O)N(CCN(CCC#N)C(=O)N[C@H](C(=O)OC)C(C)C)c1ccccc1	SF-295 CNS	> 100 µM
CCOC(=O)N1CCC2(CC1)C[C@](Sc1ccccc1)(C(C)=O)[C@H](C)O2	SF-295 CNS	> 100 µM
CCN(CC)P(=O)(c1ccc2c(c1)OCCOCCOCCOCCO2)N(CC)CC	SF-295 CNS	> 100 µM
CC(C)(C)c1ccc(O)c(C(O)c2ccccn2)c1 (centres undefined)	SF-295 CNS	> 100 µM
CC(C)(C)OC(=O)C1C(=O)NC(=O)CC1C(OCc1ccccc1)C(OCc1ccccc1)C(COCc1ccccc1)OCc1ccccc1 (centres undefined)	SF-295 CNS	> 100 µM
O=S(=O)(c1ccccc1)N1CCC1c1ccccc1 (centres undefined)	SF-295 CNS	> 100 µM
CCC(=O)N1C(=S)SC[C@H]1C(=O)OC	SF-295 CNS	> 100 µM
CC1=NC2(C(=O)O)C3(C(=O)O)N=C(C)OC3(C(F)(F)F)C2(C(F)(F)F)O1 (centres undefined)	SF-295 CNS	> 100 µM
COCCn1c(Nc2ccc(C(=O)NO)cc2)nc2ccccc21	SF-295 CNS	16.3 µM
N#CSc1c[nH]c2ccc(/C=C/C(=O)/C=C(O)/C=C/c3ccc4[nH]cc(SC#N)c4c3)cc12	SF-295 CNS	13.3 µM
